// provenance: patent US9133148B2

# IC50 per entry
Molecular target: ABHD6 (Mus musculus (Mouse))
Test: In vitro competitive activity-based protein profiling (FP-Rh), mouse ABHD6
Assay type: biochemical
Conditions: mouse brain membrane proteome, competitive ABPP

| Molecule | IC50 |
| --- | --- |
| COC(c1ccc2c(c1)OCO2)(c1ccc2c(c1)OCO2)C1CCN(C(=O)OC(C(F)(F)F)C(F)(F)F)CC1 [Example 1b] | 100 to 1000 nM |
| O=C(OC(C(F)(F)F)C(F)(F)F)N1CCN(C(=O)c2ccc(-c3ccccc3)cc2)CC1 [Example 3c] | > 1000 nM |
| CC(=O)Nc1ccc(S(=O)(=O)N2CCN(C(=O)OC(C(F)(F)F)C(F)(F)F)CC2)cc1 [Example 4e] | > 1000 nM |
| O=C(OC(C(F)(F)F)C(F)(F)F)N1CCC(C(O)(c2ccc3c(c2)OCO3)c2ccc3c(c2)OCO3)CC1 [Example 1a] | > 1000 nM |
| O=C(OC(C(F)(F)F)C(F)(F)F)N1CCN(S(=O)(=O)c2cccc(C(F)(F)F)c2)CC1 [Example 4i] | > 1000 nM |
| N#Cc1ccc(S(=O)(=O)N2CCN(C(=O)OC(C(F)(F)F)C(F)(F)F)CC2)cc1 [Example 4d] | > 1000 nM |
| O=C(OC(C(F)(F)F)C(F)(F)F)N1CCN(S(=O)(=O)c2ccccc2)CC1 [Example 4a] | 100 to 1000 nM |

----------
Biological target: Mouse brain MAGL (Mus musculus (Mouse), UniProt O35678)
Sequence (O35678 whole entry): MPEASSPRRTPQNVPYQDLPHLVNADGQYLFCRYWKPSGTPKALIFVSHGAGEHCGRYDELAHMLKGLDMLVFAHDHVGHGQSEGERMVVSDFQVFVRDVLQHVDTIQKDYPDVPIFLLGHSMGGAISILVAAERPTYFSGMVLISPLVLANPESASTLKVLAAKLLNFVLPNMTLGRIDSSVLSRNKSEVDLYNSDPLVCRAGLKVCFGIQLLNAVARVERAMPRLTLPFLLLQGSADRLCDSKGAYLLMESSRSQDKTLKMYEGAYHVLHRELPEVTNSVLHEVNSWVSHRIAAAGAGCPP
Test: Mouse brain proteomes from inhibitor treated mice (oral gavage, ABPP of brain MAGL)
Format: in vivo
Conditions: 20 mg/kg, 4 h following administration
Quantity Name: Mouse brain MAGL (% inhibition at 20 mg/kg, p.o.)

| Compound | Value Measured |
| --- | --- |
| CC(C)(C)c1ccc(S(=O)(=O)N2CCN(C(=O)OC(C(F)(F)F)C(F)(F)F)CC2)cc1 | >95% |
| O=C(OC(C(F)(F)F)C(F)(F)F)N1CCN(C(c2ccc(F)cc2)c2ccc(F)cc2)CC1 | >95% |
| O=C(OC(C(F)(F)F)C(F)(F)F)N1CCC(C(O)(c2ccc3c(c2)OCO3)c2ccc3c(c2)OCO3)CC1 | >95% |
| COC(c1ccc2c(c1)OCO2)(c1ccc2c(c1)OCO2)C1CCN(C(=O)OC(C(F)(F)F)C(F)(F)F)CC1 | 13% |
| O=C(OC(C(F)(F)F)C(F)(F)F)N1CCN(Cc2cccc(Oc3ccccc3)c2)CC1 | >95% |
| O=C(OC(C(F)(F)F)C(F)(F)F)N1CCC(C(c2ccc3c(c2)OCO3)c2ccc3c(c2)OCO3)CC1 | >95% |
| CN(Cc1cccc(-c2cccnc2)c1)C(=O)OC(C(F)(F)F)C(F)(F)F | 93% |
| CNC(=O)C(OC(=O)N1CCN(C(c2ccc(Cl)cc2)c2ccc(Cl)cc2)CC1)C(F)(F)F (stereo not shown) | >95% |
| O=C(OC(C(F)(F)F)C(F)(F)F)N1CCN(C(c2ccc3c(c2)OCO3)c2ccc3c(c2)OCO3)CC1 | >95% |
| O=C(OC(C(F)(F)F)C(F)(F)F)N1CCN(C(c2ccc(Br)cc2)c2ccc(Br)cc2)CC1 | 94% |

----------
Molecular target: ABHD6 (Mus musculus (Mouse), UniProt Q8R2Y0)
Sequence (Q8R2Y0 whole entry): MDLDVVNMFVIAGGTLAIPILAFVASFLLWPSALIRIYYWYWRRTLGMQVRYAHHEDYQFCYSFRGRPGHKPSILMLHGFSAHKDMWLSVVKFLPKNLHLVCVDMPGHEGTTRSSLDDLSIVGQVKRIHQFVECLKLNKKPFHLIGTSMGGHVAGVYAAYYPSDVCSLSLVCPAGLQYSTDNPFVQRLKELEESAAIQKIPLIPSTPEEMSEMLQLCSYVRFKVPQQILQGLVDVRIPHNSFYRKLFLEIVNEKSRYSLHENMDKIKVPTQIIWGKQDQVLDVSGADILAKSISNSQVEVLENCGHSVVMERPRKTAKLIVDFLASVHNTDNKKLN
Assay: In vitro competitive activity-based protein profiling (FP-Rh), mouse ABHD6
Type: biochemical
Conditions: mouse brain membrane proteome, competitive ABPP

| Compound | IC50 |
| --- | --- |
| O=C(OC(C(F)(F)F)C(F)(F)F)N1CCN(C(c2ccc(F)cc2)c2ccc(F)cc2)CC1 | > 1000 nM |
| COC(=O)C(OC(=O)N(C)CCc1ccccc1)C(F)(F)F (centres unmarked) | > 1000 nM |
| O=C(OC(C(F)(F)F)C(F)(F)F)N1CCN(C(c2ccc3c(c2)OCO3)c2ccc3c(c2)OCO3)CC1 | 100 to 1000 nM |
| O=C(O)C(OC(=O)N1CCN(C(c2ccc(Cl)cc2)c2ccc(Cl)cc2)CC1)C(F)(F)F (centres unmarked) | > 1000 nM |
| Cc1ccc(S(=O)(=O)N2CCN(C(=O)OC(C(F)(F)F)C(F)(F)F)CC2)cc1 | 100 to 1000 nM |
| O=C(OC(C(F)(F)F)C(F)(F)F)N1CCN(C(c2ccc3c(c2)OC(F)(F)O3)c2ccc3c(c2)OC(F)(F)O3)CC1 | > 1000 nM |
| CNC(=O)C(OC(=O)N1CCN(C(c2ccc(Cl)cc2)c2ccc(Cl)cc2)CC1)C(F)(F)F (centres unmarked) | < 100 nM |
| CN(Cc1cccc(-c2ccncc2)c1)C(=O)OC(C(F)(F)F)C(F)(F)F | 100 to 1000 nM |
